TARGET_OR_SYSTEM: HIV-1 protease (Human immunodeficiency virus type 1 group M subtype B, UniProt P04585)
Construct: The protease (or proteinase), consisting of only 99 amino acids, is among the smallest enzymes known
ASSAY_COMMENT: In vitro HIV protease inhibitory assay (HIV Protease FITC Assay)
Format: biochemical
ASSAY_CONDITIONS: HIV-1 Dose 100.000 uM
Experimental: The HIV protease screening assay is based on a fluorescently labeled substrate which can be resolved from nonlabeled cleavage product using avidin-polystyrene particles, 0.7-0.9 µm. […] The labeled cleavage product is separated from the unreacted substrate via filtration and is read on the Idexx Screen Machine. The data are analyzed by appropriate computer algorithms to ascertain percent inhibition values.
TEST_READOUT: HIV-1 Protease % Inhib (%)
Give bare numbers, in %.

Known HIV-1 Protease % Inhib results, listed for orientation:
COMPOUND: CCC(c1ccccc1)c1c(O)cc(CCCc2ccccc2)oc1=O (stereo not shown) [Example 8]
HIV-1 Protease % Inhib, %: 97
//
COMPOUND: C=CC(c1ccccc1)c1c(O)cc(CCc2ccccc2)oc1=O (stereo not shown) [Example 12]
HIV-1 Protease % Inhib, %: 107
//
COMPOUND: CCC(CC1CC1)c1cc(O)c(C(c2ccccc2)C2CC2)c(=O)o1 (stereo not shown) [Example 90]
HIV-1 Protease % Inhib, %: 96

Here is another compound to look at.
query: HIV-1 Protease % Inhib for CCC(c1ccccc1)c1c(O)cc(CCc2ccccc2F)oc1=O (stereo not shown) [Example 7] ?
result: 109
